Taken from PubChem BioAssay (NCI).

# Test system: BT-549 breast
# runDescription: NCI tumour cell line growth inhibition, 48 h
measuredMetric: TGI

compound	experimentalTarget	measured
CC1=NN(c2nc(N)nc(CC#N)n2)C(C)(C)C1	BT-549 breast	> 100 µM
Cc1ccc(/C=N/Nc2ccc3ccccc3n2)s1	BT-549 breast	68.7 µM
Cc1cc(S(=O)(=O)Nc2nc(N)nc(N(C)C)n2)c(SCC(=O)O)cc1Cl	BT-549 breast	> 10 µM
COc1ccc(C2C3COc4ccccc4C3=NN2c2ccccc2)cc1 (centres undefined)	BT-549 breast	> 100 µM
Nc1ccn(C2OC(COC(=O)C34CC5CC(CC(C5)C3)C4)C(O)C2O)c(=O)n1 (centres undefined)	BT-549 breast	> 100 µM
Cc1cc(N2CCSCC2)nc(NC2CCCC(Nc3ccnc4cc(Cl)ccc34)C2)n1 (centres undefined)	BT-549 breast	3.79 µM
Cc1ccc2nc(-c3ccc(N4C(=O)C(Cl)C4c4ccc(Cl)cc4)cc3)sc2c1 (centres undefined)	BT-549 breast	> 100 µM
COc1ccc2c(c1)CC[C@H](O)/C2=C/c1cc(OC)c(OC)c(OC)c1	BT-549 breast	17.6 µM
CCOP(=O)(OCC)C(N)c1ccc(Cl)cc1 (centres undefined)	BT-549 breast	> 100 µM

====

# System: HCC-2998 colon
# runDescription: NCI tumour cell line growth inhibition, 48 h
Each item that follows carries a reported TGI.
measuredMetric: TGI

molecule	measuredMetric	measured
CC(=O)OC1COC(Nc2nc(NCc3ccccc3)n(C)c(=O)c2N=O)C(OC(C)=O)C1OC(C)=O (stereo not given)	TGI	> 10 µM
Cc1c(C(=O)/C=C/c2ccc(N(C)C)cc2)c(=O)n(-c2ccccc2)n1C	TGI	> 100 µM
COC(C)(C)C1(O)CCC(C)CC1=O (stereo not given)	TGI	> 100 µM
CC1(C)C2CC(=O)C1(C)C(OCc1ccccc1)C2 (stereo not given)	TGI	> 100 µM
CC(=O)N=C1N(/C=C2\C(=O)Oc3ccccc3C2=O)C(=O)/C(=C/c2ccc(Cl)cc2Cl)N1C	TGI	> 100 µM

====

Here the recorded GI50 is given for each entry.
# Test system: 786-0 renal
# runDescription: NCI tumour cell line growth inhibition, 48 h
measuredMetric: GI50

compound	measured
C=C1CCC2C(C)(COC(=O)CC)C(OC(=O)CC)CCC2(C)C1C/C=C1/C(=O)OCC1OC(=O)CC (stereo not given)	1.9 µM
COc1ccc(OC)c(-c2cc(-c3ccc(Cl)cc3)nn2-c2ccc(S(=O)(=O)NC(C)=O)cc2)c1	3.03 µM
CC(=O)[CH-]C(=O)c1ccccc1.CC(=O)[CH-]C(=O)c1ccccc1.CCOCC[O-].CCOCC[O-].[Ti+4]	21.2 µM
COc1ccc(/C=N\Nc2ccc([N+](=O)[O-])cn2)cc1OC	3.46 µM
COc1ccc2nc3cc([N+](=O)[O-])ccc3c(NCCCN(C)C)c2c1	0.174 µM

====

# Tested on: SK-MEL-28 melanoma
# runDescription: NCI tumour cell line growth inhibition, 48 h
This section presents compounds with their documented TGI values.
measuredMetric: TGI (µM)

compound	experimentalTarget	measured
CN(CCNCc1cn(C)c2c1ccc1ccccc12)CCNCc1cn(C)c2c1ccc1ccccc12	SK-MEL-28 melanoma	2.84
CC1=C(C(=O)c2ccccc2)C23C(=O)N(c4ccccc4)C(=O)C2=C(O)C=CC3(O)N1 (stereo not drawn)	SK-MEL-28 melanoma	39.2
Nc1nc(N)c2cc(NCc3ccc(Cl)c(Cl)c3)ccc2n1	SK-MEL-28 melanoma	3.15
